Property measured: melting point

Record "CSc1ncc2cc(S(=O)(=O)c3ccccc3)c(=O)n(C3CCCC3)c2n1" , field melting point: 184 to 185 °C

Record "Cn1c(=O)c(S(=O)(=O)c2ccc(C(=O)O)cc2)cc2cnc(Nc3ccc4[nH]ccc4c3)nc21" , field melting point: 262 to 265 °C

Record "CN1CCN(c2ccc(Nc3ncc4cc(S(=O)(=O)c5ccc(Cl)cc5)c(=O)n(C5CCCCC5)c4n3)cc2)CC1" , field melting point: 259 to 260 °C

Record "CC(C)(C)OC(=O)N1CCN(c2ccc(Nc3ncc4cc(S(=O)(=O)c5ccccc5)c(=O)n(C5CCCC5)c4n3)nc2)CC1" , field melting point: 115 to 116 °C

Record "Cn1c(=O)c(S(=O)(=O)c2ccc(F)cc2)cc2cnc(Nc3ccc4[nH]ccc4c3)nc21" , field melting point: 278 to 282 °C

Record "Cn1c(=O)c(S(=O)(=O)c2ccc(Cl)cc2)cc2cnc(Nc3ccc(Cl)cc3)nc21" , field melting point: > 300 °C

Record "Cn1c(=O)c(S(=O)(=O)c2ccc(F)c(Cl)c2)cc2cnc(Nc3ccc4[nH]ccc4c3)nc21" , field melting point: 250 to 255 °C

Record "COC(=O)c1ccc(S(=O)(=O)c2cc3cnc(Nc4ccc5[nH]ccc5c4)nc3n(C)c2=O)cc1" , field melting point: 305 to 310 °C

Record "O=c1c(S(=O)(=O)c2ccccc2)cc2cnc(NC3CCCC3)nc2n1C1CCCC1" , field melting point: 209 to 210 °C

Record "Cn1c(=O)c(S(=O)(=O)c2ccc(Cl)cc2)cc2cnc(NCCCN3CCOCC3)nc21" , field melting point: 160 to 164 °C

Record "Cc1ccc(S(=O)(=O)c2cc3cnc(Nc4ccc5cc[nH]c5c4)nc3n(C)c2=O)cc1" , field melting point: 334 to 336 °C

Record "Cn1c(=O)c(S(=O)(=O)c2ccc(Br)cc2)cc2cnc(Nc3ccc4[nH]ccc4c3)nc21" , field melting point: 316 to 320 °C

Record "CCCn1c(=O)c(S(=O)(=O)c2ccccc2)cc2cnc(Nc3ccc4cc[nH]c4c3)nc21" , field melting point: 272 to 273 °C

Record "Cn1c(=O)c(S(=O)(=O)c2ccccc2)cc2cnc(Nc3cnc4[nH]ccc4c3)nc21" , field melting point: 280 to 284 °C

Record "Cn1c(=O)c(S(=O)(=O)c2ccccc2)cc2cnc(Nc3ccc4cc[nH]c4c3)nc21" , field melting point: > 350 °C

Record "Cc1ccc(S(=O)(=O)c2cc3cnc(Nc4ccc5c(c4)CC(=O)N5)nc3n(C)c2=O)cc1" , field melting point: 280 °C

Record "COc1cc(Nc2ncc3cc(S(=O)(=O)c4ccccc4)c(=O)n(C4CCCC4)c3n2)cc(OC)c1OC" , field melting point: 119 to 120 °C

Record "Cn1c(=O)c(S(=O)(=O)c2ccc(F)cc2)cc2cnc(Nc3cccc4[nH]ccc34)nc21" , field melting point: > 350 °C

Record "CCCn1c(=O)c(S(=O)(=O)c2ccccc2)cc2cnc(Nc3ccc4[nH]ccc4c3)nc21" , field melting point: 293 to 295 °C

Record "Cn1c(=O)c(S(=O)(=O)c2ccc(F)cc2)cc2cnc(Nc3cnc4[nH]ccc4c3)nc21" , field melting point: 274 to 280 °C

Record "COc1ccc(S(=O)(=O)c2cc3cnc(Nc4cccc5[nH]ccc45)nc3n(C)c2=O)cc1" , field melting point: 289 to 292 °C

Record "Cn1c(=O)c(S(=O)(=O)c2ccc(Cl)cc2)cc2cnc(Nc3cccc4[nH]ccc34)nc21" , field melting point: 320 to 324 °C

Record "COc1ccc(Nc2ncc3cc(S(=O)(=O)c4ccccc4)c(=O)n(C4CCCC4)c3n2)cc1" , field melting point: 201 °C

Record "CCCn1c(=O)c(S(=O)(=O)c2ccccc2)cc2cnc(SC)nc21" , field melting point: 231 to 232 °C

Record "Cn1c(=O)c(S(=O)(=O)c2ccc(F)cc2)cc2cnc(Nc3ccc4cc[nH]c4c3)nc21" , field melting point: > 350 °C

Record "Cn1c(=O)c(S(=O)(=O)c2ccc(F)cc2)cc2cnc(Nc3ccc4[nH]ncc4c3)nc21" , field melting point: 160 to 165 °C

Record "Cn1c(=O)c(S(=O)(=O)c2ccc(F)c(Cl)c2)cc2cnc(Nc3cnc4[nH]ccc4c3)nc21" , field melting point: 320 to 325 °C

Record "Cn1c(=O)c(S(=O)(=O)c2ccc(Cl)cc2)cc2cnc(Nc3ccc4[nH]ccc4c3)nc21" , field melting point: 316 to 320 °C

Record "Cc1ccc(S(=O)(=O)c2cc3cnc(Nc4cnc5[nH]ccc5c4)nc3n(C)c2=O)cc1" , field melting point: 252 to 255 °C

Record "COc1ccc(Nc2ncc3cc(S(=O)(=O)c4ccc(Cl)cc4)c(=O)n(C)c3n2)cc1" , field melting point: 286 to 290 °C

Record "Cc1ccc(S(=O)(=O)c2cc3cnc(Nc4cccc5cccnc45)nc3n(C)c2=O)cc1" , field melting point: > 350 °C
